Kindly state Porcine Ventricle EC25 (Y75 value) for each of the entries shown.
molecular target: myosin ATPase, Porcine Ventricle myofibrils (Sus scrofa, UniProt P79293); construct: Myofibrils from porcine cardiac muscle was isolated from the left ventricle of Yucatan minipigs; tissue Exemplar Genetics; host or cells: left ventricle of Yucatan minipigs, myofibrils; experiment: Myofibril ATPase assay, porcine ventricle myofibrils; assay type: biochemical, porcine (Yucatan minipigs); conditions: concentration required to reduce myosin ATP-ase activity by 25%; Porcine Ventricle Prep pCa 25 GEOM_MEAN
Sequence (P79293 whole entry): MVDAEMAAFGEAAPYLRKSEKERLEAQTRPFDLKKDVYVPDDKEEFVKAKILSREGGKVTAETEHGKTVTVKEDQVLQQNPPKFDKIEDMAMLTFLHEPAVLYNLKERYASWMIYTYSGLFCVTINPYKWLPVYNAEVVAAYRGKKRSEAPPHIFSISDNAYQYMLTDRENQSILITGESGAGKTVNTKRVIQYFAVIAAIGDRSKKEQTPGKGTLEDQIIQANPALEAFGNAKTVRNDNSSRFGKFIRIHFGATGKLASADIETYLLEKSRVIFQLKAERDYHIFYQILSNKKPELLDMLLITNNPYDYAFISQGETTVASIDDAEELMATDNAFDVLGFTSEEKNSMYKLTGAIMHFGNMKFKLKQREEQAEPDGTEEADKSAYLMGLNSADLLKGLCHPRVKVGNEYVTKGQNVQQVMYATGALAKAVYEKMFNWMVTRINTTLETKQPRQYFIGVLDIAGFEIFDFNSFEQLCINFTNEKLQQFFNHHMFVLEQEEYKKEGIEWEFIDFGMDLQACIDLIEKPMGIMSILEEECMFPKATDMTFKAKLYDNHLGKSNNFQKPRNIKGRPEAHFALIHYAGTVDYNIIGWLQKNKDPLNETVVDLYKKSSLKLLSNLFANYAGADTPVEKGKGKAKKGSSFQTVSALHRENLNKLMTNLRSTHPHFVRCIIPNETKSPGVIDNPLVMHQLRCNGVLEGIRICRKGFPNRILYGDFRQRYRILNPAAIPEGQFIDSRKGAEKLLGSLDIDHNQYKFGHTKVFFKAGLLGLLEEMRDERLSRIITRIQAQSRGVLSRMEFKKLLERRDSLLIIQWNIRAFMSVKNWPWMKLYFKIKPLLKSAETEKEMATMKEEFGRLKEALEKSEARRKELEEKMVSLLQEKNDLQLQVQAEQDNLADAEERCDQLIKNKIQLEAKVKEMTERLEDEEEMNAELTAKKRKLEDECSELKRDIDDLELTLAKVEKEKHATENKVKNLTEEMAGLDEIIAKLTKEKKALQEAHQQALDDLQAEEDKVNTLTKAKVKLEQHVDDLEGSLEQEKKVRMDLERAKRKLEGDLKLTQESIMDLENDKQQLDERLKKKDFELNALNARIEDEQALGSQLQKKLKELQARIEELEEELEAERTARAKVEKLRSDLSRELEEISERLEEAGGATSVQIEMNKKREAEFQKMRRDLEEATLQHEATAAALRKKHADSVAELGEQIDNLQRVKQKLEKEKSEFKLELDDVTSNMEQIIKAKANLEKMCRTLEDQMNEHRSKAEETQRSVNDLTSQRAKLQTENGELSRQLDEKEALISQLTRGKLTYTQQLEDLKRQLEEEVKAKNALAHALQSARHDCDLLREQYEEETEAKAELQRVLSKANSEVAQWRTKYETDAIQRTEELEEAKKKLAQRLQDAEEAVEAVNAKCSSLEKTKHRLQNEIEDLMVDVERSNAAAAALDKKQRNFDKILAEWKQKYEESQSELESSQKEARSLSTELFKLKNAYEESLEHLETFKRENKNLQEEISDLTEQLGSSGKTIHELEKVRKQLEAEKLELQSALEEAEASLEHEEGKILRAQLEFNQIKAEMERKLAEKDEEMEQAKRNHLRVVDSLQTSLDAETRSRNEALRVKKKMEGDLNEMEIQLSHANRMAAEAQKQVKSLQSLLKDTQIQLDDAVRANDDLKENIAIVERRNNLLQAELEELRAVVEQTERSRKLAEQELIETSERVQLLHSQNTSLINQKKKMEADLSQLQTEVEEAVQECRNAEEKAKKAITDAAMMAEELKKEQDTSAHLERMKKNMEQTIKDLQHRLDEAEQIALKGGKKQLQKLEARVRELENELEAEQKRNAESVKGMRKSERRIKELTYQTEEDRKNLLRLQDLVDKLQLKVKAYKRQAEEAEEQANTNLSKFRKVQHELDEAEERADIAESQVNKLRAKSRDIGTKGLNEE
Answer in µM, number only, no unit symbol.

[Q] Identify the measured Porcine Ventricle EC25 (Y75 value) of Cc1nccc2[nH]c(=O)n(CC(=O)N[C@H](C)c3ncc(C#N)cc3F)c(=O)c12 (single isomer, unassigned) for myosin ATPase, Porcine Ventricle myofibrils (Sus scrofa, UniProt P79293).
[A] 100

[Q] Identify the measured Porcine Ventricle EC25 (Y75 value) of C[C@@H](NC(=O)Cn1c(=O)[nH]c2ccc(F)cc2c1=O)c1ncc(C#N)cn1 (single isomer, unassigned) for myosin ATPase, Porcine Ventricle myofibrils (Sus scrofa, UniProt P79293).
[A] 20.04

[Q] Identify the measured Porcine Ventricle EC25 (Y75 value) of C[C@H](NC(=O)Cn1c(=O)[nH]c2cccc(F)c2c1=O)c1ncc(C#N)cn1 (single isomer, unassigned) for myosin ATPase, Porcine Ventricle myofibrils (Sus scrofa, UniProt P79293).
[A] 100

[Q] Identify the measured Porcine Ventricle EC25 (Y75 value) of C[C@@H](NC(=O)Cn1c(=O)[nH]c2ccc(C#N)cc2c1=O)c1ncc(C#N)cc1F (single isomer, unassigned) for myosin ATPase, Porcine Ventricle myofibrils (Sus scrofa, UniProt P79293).
[A] 100

[Q] Identify the measured Porcine Ventricle EC25 (Y75 value) of CC(NC(=O)Cn1c(=O)[nH]c2ccccc2c1=O)c1ccc(F)cn1 (stereo not drawn) for myosin ATPase, Porcine Ventricle myofibrils (Sus scrofa, UniProt P79293).
[A] 100

[Q] Identify the measured Porcine Ventricle EC25 (Y75 value) of "C[C@H](NC(=O)[C@@H](C)n1c(=O)[nH]c2ccc(F)cc2c1=O)c1ccc(F)cc1F" for myosin ATPase, Porcine Ventricle myofibrils (Sus scrofa, UniProt P79293).
[A] 28.36

[Q] Identify the measured Porcine Ventricle EC25 (Y75 value) of Cc1cc(F)ccc1[C@H](C)NC(=O)Cn1c(=O)[nH]c2ccccc2c1=O (single isomer, unassigned) for myosin ATPase, Porcine Ventricle myofibrils (Sus scrofa, UniProt P79293).
[A] 1.526

[Q] Identify the measured Porcine Ventricle EC25 (Y75 value) of Cc1ccc2[nH]c(=O)n(CC(=O)N[C@H](C)c3ncc(C#N)cc3F)c(=O)c2c1F (single isomer, unassigned) for myosin ATPase, Porcine Ventricle myofibrils (Sus scrofa, UniProt P79293).
[A] 63.05

[Q] Identify the measured Porcine Ventricle EC25 (Y75 value) of C[C@H](NC(=O)[C@@H](C)n1c(=O)[nH]c2ccccc2c1=O)c1ccc(F)cc1F (single isomer, unassigned) for myosin ATPase, Porcine Ventricle myofibrils (Sus scrofa, UniProt P79293).
[A] 87.37

[Q] Identify the measured Porcine Ventricle EC25 (Y75 value) of O=C(Cn1c(=O)[nH]c2ccccc2c1=O)NC(CO)c1ccc(F)cc1F (stereo not drawn) for myosin ATPase, Porcine Ventricle myofibrils (Sus scrofa, UniProt P79293).
[A] 100

[Q] Identify the measured Porcine Ventricle EC25 (Y75 value) of CC(NC(=O)Cn1c(=O)[nH]c2ccccc2c1=O)c1ccncc1 (stereo not drawn) for myosin ATPase, Porcine Ventricle myofibrils (Sus scrofa, UniProt P79293).
[A] 100

[Q] Identify the measured Porcine Ventricle EC25 (Y75 value) of C[C@H](NC(=O)C(c1ccccc1)n1c(=O)[nH]c2ccccc2c1=O)c1ccc(F)cc1F (single isomer, unassigned) for myosin ATPase, Porcine Ventricle myofibrils (Sus scrofa, UniProt P79293).
[A] 100

[Q] Identify the measured Porcine Ventricle EC25 (Y75 value) of C[C@@H](NC(=O)Cn1c(=O)[nH]c2ccccc2c1=O)c1ccncc1F (single isomer, unassigned) for myosin ATPase, Porcine Ventricle myofibrils (Sus scrofa, UniProt P79293).
[A] 100

[Q] Identify the measured Porcine Ventricle EC25 (Y75 value) of C[C@H](NC(=O)C(Cc1ccccc1)n1c(=O)[nH]c2ccccc2c1=O)c1ccc(F)cc1F (single isomer, unassigned) for myosin ATPase, Porcine Ventricle myofibrils (Sus scrofa, UniProt P79293).
[A] 43.467

[Q] Identify the measured Porcine Ventricle EC25 (Y75 value) of C[C@@H](NC(=O)Cn1c(=O)[nH]c2ccc(F)c(F)c2c1=O)c1ccc(C#N)cn1 (single isomer, unassigned) for myosin ATPase, Porcine Ventricle myofibrils (Sus scrofa, UniProt P79293).
[A] 10.16

[Q] Identify the measured Porcine Ventricle EC25 (Y75 value) of C[C@H](NC(=O)[C@@H](CC1CC1)n1c(=O)[nH]c2ccccc2c1=O)c1ncc(F)cc1F (single isomer, unassigned) for myosin ATPase, Porcine Ventricle myofibrils (Sus scrofa, UniProt P79293).
[A] 100

[Q] Identify the measured Porcine Ventricle EC25 (Y75 value) of C[C@H](NC(=O)C(CO)n1c(=O)[nH]c2ccccc2c1=O)c1ccc(F)cc1F (single isomer, unassigned) for myosin ATPase, Porcine Ventricle myofibrils (Sus scrofa, UniProt P79293).
[A] 100

[Q] Identify the measured Porcine Ventricle EC25 (Y75 value) of Cc1c(F)ccc2[nH]c(=O)n(CC(=O)N[C@@H]3CCc4cc(C#N)cnc43)c(=O)c12 (single isomer, unassigned) for myosin ATPase, Porcine Ventricle myofibrils (Sus scrofa, UniProt P79293).
[A] 0.547

[Q] Identify the measured Porcine Ventricle EC25 (Y75 value) of CC[C@H](NC(=O)Cn1c(=O)[nH]c2ccccc2c1=O)c1ccc(F)cc1F (single isomer, unassigned) for myosin ATPase, Porcine Ventricle myofibrils (Sus scrofa, UniProt P79293).
[A] 100

[Q] Identify the measured Porcine Ventricle EC25 (Y75 value) of "Cc1nccc2[nH]c(=O)n(CC(=O)N[C@@H](C)c3ncc(C#N)cc3F)c(=O)c12" for myosin ATPase, Porcine Ventricle myofibrils (Sus scrofa, UniProt P79293).
[A] 7.141

[Q] Identify the measured Porcine Ventricle EC25 (Y75 value) of "COCn1c(=O)n(CC(=O)N[C@@H](C)c2ccc(F)cc2F)c(=O)c2cc(F)ccc21" for myosin ATPase, Porcine Ventricle myofibrils (Sus scrofa, UniProt P79293).
[A] 100

[Q] Identify the measured Porcine Ventricle EC25 (Y75 value) of C[C@@H](NC(=O)Cn1c(=O)[nH]c2ccc(F)cc2c1=O)c1cnc(C#N)nc1 (single isomer, unassigned) for myosin ATPase, Porcine Ventricle myofibrils (Sus scrofa, UniProt P79293).
[A] 100

[Q] Identify the measured Porcine Ventricle EC25 (Y75 value) of C[C@H](NC(=O)[C@H](C)n1c(=O)[nH]c2ccccc2c1=O)c1ccc(F)cc1F (single isomer, unassigned) for myosin ATPase, Porcine Ventricle myofibrils (Sus scrofa, UniProt P79293).
[A] 99.13

[Q] Identify the measured Porcine Ventricle EC25 (Y75 value) of "C[C@H](NC(=O)Cn1c(=O)[nH]c2ccc(F)cc2c1=O)c1ccc(F)cc1F" for myosin ATPase, Porcine Ventricle myofibrils (Sus scrofa, UniProt P79293).
[A] 0.1805

[Q] Identify the measured Porcine Ventricle EC25 (Y75 value) of CC(NC(=O)Cn1c(=O)[nH]c2ccccc2c1=O)c1cncnc1 (stereo not drawn) for myosin ATPase, Porcine Ventricle myofibrils (Sus scrofa, UniProt P79293).
[A] 100

[Q] Identify the measured Porcine Ventricle EC25 (Y75 value) of "C[C@H](NC(=O)Cn1c(=O)[nH]c2c(F)cccc2c1=O)c1ccc(F)cc1F" for myosin ATPase, Porcine Ventricle myofibrils (Sus scrofa, UniProt P79293).
[A] 100

[Q] Identify the measured Porcine Ventricle EC25 (Y75 value) of "C[C@H](NC(=O)Cn1c(=O)[nH]c2c(Cl)cccc2c1=O)c1ccc(F)cc1F" for myosin ATPase, Porcine Ventricle myofibrils (Sus scrofa, UniProt P79293).
[A] 100

###

Kindly state Rabbit Psoas EC25 (Y75 value) for each of the entries shown.
system: myosin ATPase, Rabbit Psoas myofibrils; experiment: Myofibril ATPase assay, rabbit psoas (skeletal) myofibrils; assay type: biochemical; conditions: concentration required to reduce myosin ATP-ase activity by 25%; Rabbit Psoas Prep pCa 25 GEOM_MEAN
Answer in µM, number only, no unit symbol.

[Q] Using the record for C[C@H](NC(=O)Cn1c(=O)[nH]c2cccc(Cl)c2c1=O)c1ccc(F)cc1F [Compound 136] , report its Rabbit Psoas EC25 (Y75 value).
[A] 0.591

[Q] Using the record for COCn1c(=O)n(CC(=O)N[C@@H](C)c2ccc(F)cc2F)c(=O)c2cc(F)ccc21 [Compound 402] , report its Rabbit Psoas EC25 (Y75 value).
[A] 100

[Q] Using the record for Cc1cccc2[nH]c(=O)n(CC(=O)N[C@@H](C)c3ccc(F)cc3F)c(=O)c12 [Compound 73] , report its Rabbit Psoas EC25 (Y75 value).
[A] 0.0495

[Q] Using the record for CC(NC(=O)Cn1c(=O)[nH]c2ccccc2c1=O)c1cnn(C)c1 (stereo not drawn) [Compound 603] , report its Rabbit Psoas EC25 (Y75 value).
[A] 100

[Q] Using the record for C[C@H](NC(=O)Cn1c(=O)[nH]c2ccccc2c1=O)c1ccc(F)cc1F [Compound 167] , report its Rabbit Psoas EC25 (Y75 value).
[A] 0.52

[Q] Using the record for C[C@H](NC(=O)Cn1c(=O)[nH]c2ccc(F)cc2c1=O)c1ncc(C#N)cn1 (single isomer, unassigned) [Compound 2] , report its Rabbit Psoas EC25 (Y75 value).
[A] 86.83

[Q] Using the record for CC(C)C[C@@H](C(=O)N[C@@H](C)c1ncc(F)cc1F)n1c(=O)[nH]c2ccccc2c1=O (single isomer, unassigned) [Compound 27] , report its Rabbit Psoas EC25 (Y75 value).
[A] 100

[Q] Using the record for C[C@H](NC(=O)Cn1c(=O)[nH]c2cc(Cl)ccc2c1=O)c1ccc(F)cc1F [Compound 407] , report its Rabbit Psoas EC25 (Y75 value).
[A] 7.16

[Q] Using the record for CC(NC(=O)Cn1c(=O)[nH]c2ccccc2c1=O)c1ncc(F)cc1F (stereo not drawn) [Compound 47] , report its Rabbit Psoas EC25 (Y75 value).
[A] 1.97

[Q] Using the record for C[C@H](NC(=O)C(C)(C)n1c(=O)[nH]c2ccccc2c1=O)c1ccc(F)cc1F [Compound 42] , report its Rabbit Psoas EC25 (Y75 value).
[A] 100

[Q] Using the record for C[C@H](NC(=O)[C@@H](CC1CC1)n1c(=O)[nH]c2ccccc2c1=O)c1ccc(F)cc1F (single isomer, unassigned) [Compound 502] , report its Rabbit Psoas EC25 (Y75 value).
[A] 13.814

[Q] Using the record for C[C@H](NC(=O)Cn1c(=O)[nH]c2ccc(F)c(F)c2c1=O)c1ncc(C#N)cc1F (single isomer, unassigned) [Compound 22] , report its Rabbit Psoas EC25 (Y75 value).
[A] 0.036

[Q] Using the record for COc1ccc([C@H](C)NC(=O)Cn2c(=O)[nH]c3ccccc3c2=O)cc1 (single isomer, unassigned) [Compound 529] , report its Rabbit Psoas EC25 (Y75 value).
[A] 100

[Q] Using the record for Cc1cc(C#N)cnc1[C@@H](C)NC(=O)Cn1c(=O)[nH]c2ccc(F)c(F)c2c1=O (single isomer, unassigned) [Compound 13] , report its Rabbit Psoas EC25 (Y75 value).
[A] 0.043

[Q] Using the record for CC(NC(=O)Cn1c(=O)[nH]c2ccccc2c1=O)c1cccs1 (stereo not drawn) [Compound 606] , report its Rabbit Psoas EC25 (Y75 value).
[A] 100
